Provide the recorded GI50 for the entries that follow.
# System: SF-295
# TEST_DESCRIPTION: Antiproliferative activity against human SF295 cells assessed as growth inhibition after 48 hrs by sulforhodamine B assay
# Assay type: functional
# EXPERIMENTAL_SETUP: SF-295, 48 h
Give bare numbers, in nM.

Record excerpt, results attached:
| SMI | TARGET_ENTITY | GI50 (nM) |
| --- | --- | --- |
| N=C(N)c1ccc(-c2ccc(-c3ccc(Cl)cc3)o2)o1 | SF-295 | 1830 |
| N=C(N)c1ccc(-c2ccc(-c3cc(Cl)cc(Cl)c3)o2)o1 | SF-295 | 1770 |

Please look at the items below and tell me GI50 for each one, in order.
1. N=C(N)c1ccc(-c2ccc(-c3ccc(F)cc3)o2)o1
2. N=C(N)c1ccc(-c2ccc(-c3ccccc3)o2)o1
3. N=C(N)c1ccc(-c2ccc(-c3cncc4ccccc34)s2)s1
4. N=C(N)c1ccc(-c2ccc(-c3ccc(Cl)cc3)s2)s1
5. COc1ccc(-c2ccc(-c3ccc(C(=N)N)o3)o2)cc1
6. COc1ccc2cc(-c3ccc(-c4ccc(C(=N)N)s4)s3)ccc2c1
7. N=C(N)c1ccc(-c2ccc(-c3cc(Cl)cc(Cl)c3)s2)s1

Solution:
1510
1810
1800
1630
1680
5070
1960

---

# TEST_DESCRIPTION: Haemolytic activity in human erythrocytes assessed as induction of hemolysis at 0.625 mM after 30 mins relative to H202
# Format: cell-based, Erythrocyte
# EXPERIMENTAL_SETUP: erythrocytes, read-out: Activity
PROPERTY: hemolysis at 0.5 h, 625 µM (%)
Answers are plain numbers, in %.

Problem: Could you please provide reported hemolysis at 0.5 h, 625 µM for "COc1ccc(-c2ccc(-c3ccc(C(=N)N)s3)s2)cc1" ? Thanks!
Solution: 4

---

# TEST_DESCRIPTION: Haemolytic activity in human erythrocytes assessed as induction of hemolysis at 2.5 mM after 30 mins relative to H202
# Assay type: cell-based, Erythrocyte
# EXPERIMENTAL_SETUP: erythrocytes, read-out: Activity
Use condition met when the recorded hemolysis at 0.5 h, 2500 µM is no lower than 20%; use condition not met when it is lower.

Use the examples below as a reference point.
| SMI | ASSIGNED_CATEGORY |
| --- | --- |
| O=C1O[C@H]([C@@H](O)CO)C(O)=C1O | condition not met |
| COc1cccc(-c2ccc(-c3ccc(C(=N)N)s3)s2)c1 | condition not met |
| COc1cc(-c2ccc(-c3ccc(C(=N)N)s3)s2)cc(OC)c1OC | condition not met |
| N=C(N)c1ccc(-c2ccc(-c3ccc(Cl)cc3)o2)o1 | condition met |
| N=C(N)c1ccc(-c2ccc(-c3ccccc3)o2)o1 | condition not met |

Next item in the queue.
Problem: Does "COc1ccc(-c2ccc(-c3ccc(C(=N)N)s3)s2)cc1" have a reported hemolysis at 0.5 h, 2500 µM of at least 20%?
Solution: condition met

---

# System: HCT-116
# TEST_DESCRIPTION: Induction of apoptosis in human HCT116 cells assessed as increase in caspase 3 mRNA expression at 100 nM after 6 hrs hrs by SYBR green dye-based qRT-PCR analysis relative to control
# Format: functional
In plain terms, low fold change (FC), meaning strictly below 3, gives label 1, and everything else gives label 0.

Examples with answers:
| COMPOUND | ASSIGNED_CATEGORY |
| --- | --- |
| N=C(N)c1ccc(-c2ccc(-c3ccccc3)s2)s1 | label 1 |
| COc1cc(OC)cc(-c2ccc(-c3ccc(C(=N)N)o3)o2)c1 | label 0 |
| O=c1[nH]cc(F)c(=O)[nH]1 [FLUOROURACIL] | label 0 |

Continue with the compound presented below.
Problem: Answer whether the compound "N=C(N)c1ccc(-c2ccc(-c3ccccc3)o2)o1" has fold change (FC) strictly less than 3
Solution: label 1

---

# Tested on: HCT-116
# TEST_DESCRIPTION: Induction of apoptosis in human HCT116 cells assessed as increase in caspase 9 mRNA expression at 100 nM after 6 hrs hrs by SYBR green dye-based qRT-PCR analysis relative to control
# Format: functional
Kindly state fold change (FC) for each of the entries shown.
Give bare numbers.

| SMI | PROPERTY | RECORDED_MEASUREMENT |
| --- | --- | --- |
| COc1cc(-c2ccc(-c3ccc(C(=N)N)s3)s2)cc(OC)c1OC | fold change (FC) | 2.81 |
| N=C(N)c1ccc(-c2ccc(-c3cc(Cl)cc(Cl)c3)s2)s1 | fold change (FC) | 1.54 |
| N=C(N)c1ccc(-c2ccc(-c3cncc4ccccc34)s2)s1 | fold change (FC) | 1.27 |

For every record below, what is its fold change (FC)?
1. N=C(N)c1ccc(-c2ccc(-c3ccc(F)cc3)o2)o1
2. COc1ccc(-c2ccc(-c3ccc(C(=N)N)o3)o2)cc1

Solution:
1. 4.67
2. 2.31

Problem: Recall and state the measured fold change (FC) for "N=C(N)c1ccc(-c2ccc(-c3ccccc3)s2)s1" .
Solution: 2.47

---

# Test system: HCT-116
# TEST_DESCRIPTION: Antiproliferative activity against human HCT116 cells assessed as growth inhibition after 48 hrs by sulforhodamine B assay
# Type: functional
# EXPERIMENTAL_SETUP: HCT-116, 48 h
PROPERTY: GI50 (nM)
One number for each entry, in nM.

// worked examples, GI50 included
| SMI | PROPERTY | ENDPOINT_UNIT | RECORDED_MEASUREMENT |
| --- | --- | --- | --- |
| N=C(N)c1ccc(-c2ccc(-c3ccccc3)o2)o1 | GI50 | nM | 2070 |
| COc1ccc2cc(-c3ccc(-c4ccc(C(=N)N)s4)s3)ccc2c1 | GI50 | nM | 2080 |
| N=C(N)c1ccc(-c2ccc(-c3ccc(Cl)cc3)s2)s1 | GI50 | nM | 1740 |
| N=C(N)c1ccc(-c2ccc(-c3cc(Cl)cc(Cl)c3)o2)o1 | GI50 | nM | 1210 |
| N=C(N)c1ccc(-c2ccc(-c3ccc(F)cc3)s2)s1 | GI50 | nM | 1730 |
| COc1ccc(-c2ccc(-c3ccc(C(=N)N)o3)o2)cc1 | GI50 | nM | 1070 |

Next item in the queue.
Problem: Report value: GI50, system: HCT-116, compound: "N=C(N)c1ccc(-c2ccc(-c3cncc4ccccc34)s2)s1"
Solution: 1610

---

# System: HOP-62
# TEST_DESCRIPTION: Antiproliferative activity against human HOP62 cells assessed as growth inhibition after 48 hrs by sulforhodamine B assay
# Assay type: functional
# EXPERIMENTAL_SETUP: HOP-62, 48 h
Provide the reported GI50 of each item.
Answers are plain numbers, in nM.

| SMI | TARGET_ENTITY | RECORDED_MEASUREMENT |
| --- | --- | --- |
| N=C(N)c1ccc(-c2ccc(-c3cncc4ccccc34)s2)s1 | HOP-62 | 1700 |

Lab note: each compound below needs its GI50 filled in.
1. N=C(N)c1ccc(-c2ccc(-c3ccccc3)o2)o1
2. COc1ccc(-c2ccc(-c3ccc(C(=N)N)o3)o2)cc1
3. N=C(N)c1ccc(-c2ccc(-c3ccc4ccccc4c3)s2)s1
4. N=C(N)c1ccc(-c2ccc(-c3ccc(F)cc3)s2)s1

Solution:
1: 3590; 2: 1500; 3: 2080; 4: 1640

Hey, quick one: what's GI50 for each of these?
1. COc1cc(-c2ccc(-c3ccc(C(=N)N)s3)s2)cc(OC)c1OC
2. COc1ccc2cc(-c3ccc(-c4ccc(C(=N)N)s4)s3)ccc2c1

Solution:
1970
1780

---

# System: HCT-116
# TEST_DESCRIPTION: Antiproliferative activity against human HCT116 cells assessed as growth inhibition after 48 hrs by sulforhodamine B assay
# Assay type: functional
# EXPERIMENTAL_SETUP: HCT-116, 48 h
Task for the reader: assign each of the following molecules its reported GI50.
Answers are plain numbers, in nM.

Recorded GI50, per entry:
| SMI | GI50 / nM |
| --- | --- |
| N=C(N)c1ccc(-c2ccc(-c3cc(Cl)cc(Cl)c3)s2)s1 | 1610 |
| N=C(N)c1ccc(-c2ccc(-c3ccc4ccccc4c3)s2)s1 | 1770 |
| N=C(N)c1ccc(-c2ccc(-c3ccc(Cl)cc3)o2)o1 | 1900 |
| COc1cc(OC)cc(-c2ccc(-c3ccc(C(=N)N)o3)o2)c1 | 2510 |

# per-item lookup of GI50; items listed below
1. COc1cc(-c2ccc(-c3ccc(C(=N)N)s3)s2)cc(OC)c1OC
2. N=C(N)c1ccc(-c2ccc(-c3ccc(F)cc3)o2)o1

Solution:
1730
1180

---

For each entry below, report its GI50 value.
# Test system: T47D
# TEST_DESCRIPTION: Antiproliferative activity against human T47D cells assessed as growth inhibition after 48 hrs by sulforhodamine B assay
# Type: functional
Give bare numbers, in nM.

Provide GI50 for all items below, preserving their order.
1. N=C(N)c1ccc(-c2ccc(-c3cc(Cl)cc(Cl)c3)s2)s1
2. COc1cc(-c2ccc(-c3ccc(C(=N)N)s3)s2)cc(OC)c1OC
3. COc1ccc2cc(-c3ccc(-c4ccc(C(=N)N)s4)s3)ccc2c1
4. N=C(N)c1ccc(-c2ccc(-c3cncc4ccccc34)s2)s1
5. N=C(N)c1ccc(-c2ccc(-c3ccc(F)cc3)s2)s1
6. N=C(N)c1ccc(-c2ccc(-c3ccc4ccccc4c3)s2)s1

Solution:
1800
1700
1790
1520
1740
1950
